Molecular target: Avi-KRAS G12C (1-169) GppNHp/RAF1 RBD-3×FLAG (52-151) (Homo sapiens, UniProt P01116, G12C)
Construct: Avi-KRAS G12C (1-169) GppNHp/RAF1 RBD-3×FLAG (52-151)
Sequence (P01116 1-169 isoform P01116-2 G12C limits assumed): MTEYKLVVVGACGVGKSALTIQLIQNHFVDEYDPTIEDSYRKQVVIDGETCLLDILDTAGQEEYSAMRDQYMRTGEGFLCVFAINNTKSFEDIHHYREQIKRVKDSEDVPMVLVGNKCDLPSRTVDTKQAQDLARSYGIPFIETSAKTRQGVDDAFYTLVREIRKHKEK
Assay: Raf1 RBD-KRAS G12C-GppNHp disruption (protein:protein interaction HTRF assay)
Description: A protein: protein (PPI) interaction Homogeneous Time Resolved Fluorescence (HTRF) assay was used to determine the effectiveness of compounds of the present disclosure in disrupting KRAS G12C protein and effector (RAF1 or PIK3CA) binding. […] Plates were analyzed on an Envision plate reader using the following setting: Excitation 320 nm, Bandwidth 75 nm; Emission 615 nm, Bandwidth 85 nm; Gain 100%; Flashes 100; Lag 60 μs. […] Data was plotted and analyzed using Prism 8.
Parameter IC50: see the listing below.

Illustrative cases are given below, each with its answer.
In one line, give reported IC50 of the entry C=CC(=O)N1C[C@H](Oc2nc(OC[C@@]34CCCN3C[C@H](F)C4)nc3c(F)c(-c4ccc(F)c5sc(N)c(C#N)c45)c(C(F)(F)F)cc23)C[C@@H]1COC (atropisomer, axis not shown) [Compound 86] .
5000 to 20000 nM

In one line, give reported IC50 of the entry C=CC(=O)N1CC[C@@H](Oc2nc(OCC34CCCN3CCC4)nc3c(F)c(-c4ccc(F)c5sc(N)c(C#N)c45)c(C(F)(F)F)cc23)[C@H]1C [Compound 100] .
≤ 500 nM

In one line, give reported IC50 of the entry C=CC(=O)N1CC[C@@H](Oc2nc(OC[C@@]34CCCN3C[C@H](F)C4)nc3c(F)c(-c4ccc(F)c5sc(N)c(C#N)c45)ncc23)[C@H]1C [Compound 73] .
≤ 500 nM

In one line, give reported IC50 of the entry C=CC(=O)N1CC[C@@H](Oc2nc(OC[C@@]34CCCN3C[C@H](OC)C4)nc3c(F)c(-c4ccc(F)c5sc(N)c(C#N)c45)c(C(F)(F)F)cc23)[C@H]1C [Compound 99] .
≤ 500 nM

Further cases:
In one line, give reported IC50 of the entry C=CC(=O)N1CC[C@H](Oc2nc(OC[C@@]34CCCN3C[C@H](F)C4)nc3c(F)c(-c4ccc(F)c5sc(N)nc45)c(Cl)cc23)C1 (atropisomer, axis not shown) [Compound 8] .
500 to 5000 nM

---

Molecular target: Avi-KRAS G12C (1-169) GppNHp/RAF1 RBD-3×FLAG (52-151) (Homo sapiens, UniProt P01116, G12C)
Construct: Avi-KRAS G12C (1-169) GppNHp/RAF1 RBD-3×FLAG (52-151)
Assay: Raf1 RBD-KRAS G12C-GppNHp disruption (protein:protein interaction HTRF assay)
Parameter IC50: see the listing below.

In one line, give reported IC50 of the entry C=CC(=O)N1C[C@H](Oc2nc(OC[C@@]34CCCN3C[C@H](F)C4)nc3c(F)c(-c4ccc(F)c5sc(N)c(C#N)c45)c(C(F)(F)F)cc23)C[C@@H]1COC (atropisomer, axis not shown) [Compound 85] .
≤ 500 nM

In one line, give reported IC50 of the entry C=CC(=O)N1CC[C@@H](Oc2nc(OC[C@@]34CCCN3C[C@H](F)C4)nc3c(Cl)c(-c4ccc(F)c5sc(N)c(C#N)c45)ncc23)[C@H]1C [Compound 106] .
≤ 500 nM

In one line, give reported IC50 of the entry C=CC(=O)N1CC[C@@H](Oc2nc(OC[C@@H]3CCCN3C)nc3c(F)c(-c4ccc(F)c5sc(N)c(C#N)c45)c(C(F)(F)F)cc23)[C@H]1C [Compound 101] .
≤ 500 nM

In one line, give reported IC50 of the entry C=CC(=O)N1CC[C@@H](Oc2nc(N3CC(N4CC5(CC5)C4)C3)nc3c(F)c(-c4ccc(F)c5sc(N)c(C#N)c45)ncc23)C1 [Compound 87] .
500 to 5000 nM

In one line, give reported IC50 of the entry C=CC(=O)N1CC[C@@H](Oc2nc(OC[C@@]34CCCN3C[C@H](F)C4)nc3c(F)c(-c4ccc(F)c5sc(N)nc45)c(C(F)(F)F)cc23)C1 (single isomer, unassigned) [Compound 12] .
500 to 5000 nM
